Origin of values: patent US20260184768A1

Biological target: T1, recombinant full-length P. aeruginosa PcrV (Pseudomonas aeruginosa)
T1 construct: Coated on ELISA plates; also called Full length PcrV; Full length PerV
Assay: ELISA, PcrV coated on plate, chemiluminescence
Value Kind: EC50

REGN3514 (antibody, V domains shown, also called Control I; Control I-REGN3514) VH: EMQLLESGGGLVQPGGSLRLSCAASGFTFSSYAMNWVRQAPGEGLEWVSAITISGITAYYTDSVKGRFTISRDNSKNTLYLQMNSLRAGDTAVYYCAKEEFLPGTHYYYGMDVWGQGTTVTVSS VL: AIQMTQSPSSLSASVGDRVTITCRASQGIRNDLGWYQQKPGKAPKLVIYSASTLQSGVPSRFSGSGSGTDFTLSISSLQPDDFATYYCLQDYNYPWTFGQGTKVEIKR: 0.696 nM
H1H29332P (antibody, V domains shown) VH: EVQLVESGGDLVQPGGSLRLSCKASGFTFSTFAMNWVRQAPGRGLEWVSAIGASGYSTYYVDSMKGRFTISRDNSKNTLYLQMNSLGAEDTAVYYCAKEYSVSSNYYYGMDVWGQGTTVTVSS VL: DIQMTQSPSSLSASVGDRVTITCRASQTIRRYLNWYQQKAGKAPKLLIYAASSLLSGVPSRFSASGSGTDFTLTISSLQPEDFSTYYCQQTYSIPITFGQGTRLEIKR: 2.12 nM
H1H29329P (antibody, V domains shown) VH: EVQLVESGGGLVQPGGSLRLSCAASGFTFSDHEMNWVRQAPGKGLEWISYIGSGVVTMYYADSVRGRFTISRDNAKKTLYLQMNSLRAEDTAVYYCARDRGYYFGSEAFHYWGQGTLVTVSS VL: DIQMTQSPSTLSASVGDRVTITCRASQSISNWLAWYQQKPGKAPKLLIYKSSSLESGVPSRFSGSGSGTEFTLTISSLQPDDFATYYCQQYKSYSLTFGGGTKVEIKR: 0.597 nM
H1H29339P (antibody, V domains shown) VH: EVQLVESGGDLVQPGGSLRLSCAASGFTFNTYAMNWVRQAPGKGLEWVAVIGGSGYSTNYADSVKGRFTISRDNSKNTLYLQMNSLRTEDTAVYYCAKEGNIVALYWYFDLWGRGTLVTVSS VL: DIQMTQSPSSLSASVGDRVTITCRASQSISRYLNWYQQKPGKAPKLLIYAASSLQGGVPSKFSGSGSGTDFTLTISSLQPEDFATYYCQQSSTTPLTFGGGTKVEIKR: 1.96 nM
H1H29336P (antibody, V domains shown) VH: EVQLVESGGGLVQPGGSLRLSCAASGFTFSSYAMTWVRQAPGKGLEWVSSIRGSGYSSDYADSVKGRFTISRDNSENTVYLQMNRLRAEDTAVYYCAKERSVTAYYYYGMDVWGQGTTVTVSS VL: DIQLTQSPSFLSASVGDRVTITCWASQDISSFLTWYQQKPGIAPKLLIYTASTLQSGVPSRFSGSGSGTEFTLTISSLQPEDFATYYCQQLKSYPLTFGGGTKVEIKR: 2.28 nM
